Target Desc: Carbonic anhydrase 2 (Homo sapiens)
Procedure Summary: Inhibition of human recombinant carbonic anhydrase 2-mediated CO2 hydration after 6 hrs by stopped-flow assay
pKi: −log10 of the molar value.
Test Readout: pKi

{"Mol Smiles": "COc1ccc(-c2cnnn2-c2ccc3c(c2)C=CS(=O)(=O)O3)cc1", "Test Readout": "pKi", "Value Reported": "< 5.00"}
{"Mol Smiles": "O=S1(=O)C=Cc2cc(-n3nncc3-c3ccc(F)cc3)ccc2O1", "Test Readout": "pKi", "Value Reported": "< 5.00"}
{"Mol Smiles": "O=S1(=O)C=Cc2cc(-n3nncc3-c3ccc(C(F)(F)F)cc3)ccc2O1", "Test Readout": "pKi", "Value Reported": "< 5.00"}
{"Mol Smiles": "CC(C)(O)c1cn(-c2ccc3c(c2)C=CS(=O)(=O)O3)nn1", "Test Readout": "pKi", "Value Reported": "< 5.00"}
{"Mol Smiles": "O=S1(=O)C=Cc2cc(-n3cc(-c4cccc(Cl)c4)nn3)ccc2O1", "Test Readout": "pKi", "Value Reported": "< 5.00"}
{"Mol Smiles": "O=S1(=O)C=Cc2cc(-n3nncc3-c3ccc(Cl)cc3)ccc2O1", "Test Readout": "pKi", "Value Reported": "< 5.00"}
{"Mol Smiles": "O=S1(=O)C=Cc2cc(-n3nncc3-c3cccc(Cl)c3)ccc2O1", "Test Readout": "pKi", "Value Reported": "< 5.00"}
{"Mol Smiles": "O=S1(=O)C=Cc2cc(-n3nncc3-c3ccccc3)ccc2O1", "Test Readout": "pKi", "Value Reported": "< 5.00"}
{"Mol Smiles": "O=S1(=O)C=Cc2cc(-n3cc(-c4ccc(C(F)(F)F)cc4)nn3)ccc2O1", "Test Readout": "pKi", "Value Reported": "< 5.00"}
{"Mol Smiles": "O=S1(=O)C=Cc2cc(-n3nncc3-c3cccc(C(F)(F)F)c3)ccc2O1", "Test Readout": "pKi", "Value Reported": "< 5.00"}
{"Mol Smiles": "O=S1(=O)C=Cc2cc(-n3nncc3-c3ccc(OC(F)(F)F)cc3)ccc2O1", "Test Readout": "pKi", "Value Reported": "< 5.00"}
{"Mol Smiles": "O=S1(=O)C=Cc2cc(-n3cc(-c4ccc(F)cc4)nn3)ccc2O1", "Test Readout": "pKi", "Value Reported": "< 5.00"}
{"Mol Smiles": "Nc1cccc(-c2cn(-c3ccc4c(c3)C=CS(=O)(=O)O4)nn2)c1", "Test Readout": "pKi", "Value Reported": "< 5.00"}
{"Mol Smiles": "CC(C)(C)c1cn(-c2ccc3c(c2)C=CS(=O)(=O)O3)nn1", "Test Readout": "pKi", "Value Reported": "< 5.00"}
{"Mol Smiles": "O=S1(=O)C=Cc2cc(-n3cc(-c4ccc(Cl)cc4)nn3)ccc2O1", "Test Readout": "pKi", "Value Reported": "< 5.00"}
{"Mol Smiles": "Nc1ccccc1-c1cnnn1-c1ccc2c(c1)C=CS(=O)(=O)O2", "Test Readout": "pKi", "Value Reported": "< 5.00"}
{"Mol Smiles": "O=S1(=O)C=Cc2cc(-n3cc(-c4cccc(F)c4)nn3)ccc2O1", "Test Readout": "pKi", "Value Reported": "< 5.00"}
{"Mol Smiles": "Nc1ccccc1-c1cn(-c2ccc3c(c2)C=CS(=O)(=O)O3)nn1", "Test Readout": "pKi", "Value Reported": "< 5.00"}
{"Mol Smiles": "COc1cccc(-c2cnnn2-c2ccc3c(c2)C=CS(=O)(=O)O3)c1", "Test Readout": "pKi", "Value Reported": "< 5.00"}
{"Mol Smiles": "O=S1(=O)C=Cc2cc(-n3cc(C4CC4)nn3)ccc2O1", "Test Readout": "pKi", "Value Reported": "< 5.00"}
{"Mol Smiles": "O=S1(=O)C=Cc2cc(-n3nncc3-c3cccc(F)c3)ccc2O1", "Test Readout": "pKi", "Value Reported": "< 5.00"}

----------
Target Desc: Carbonic anhydrase 9 (Homo sapiens, UniProt Q16790)
Procedure Summary: Inhibition of human recombinant carbonic anhydrase 9-mediated CO2 hydration after 6 hrs by stopped-flow assay
Readings of log10 Ki for the listed compounds
Test Readout: log10 Ki (log10 of the value in nM)

{"Mol Smiles": "Nc1cccc(-c2cn(-c3ccc4c(c3)C=CS(=O)(=O)O4)nn2)c1", "log10 Ki": 2.94}
{"Mol Smiles": "O=S1(=O)C=Cc2cc(-n3nncc3-c3cccc(F)c3)ccc2O1", "log10 Ki": 0.87}
{"Mol Smiles": "O=S1(=O)C=Cc2cc(-n3nncc3-c3cccc(Cl)c3)ccc2O1", "log10 Ki": 0.94}
{"Mol Smiles": "CC(C)(C)c1cn(-c2ccc3c(c2)C=CS(=O)(=O)O3)nn1", "log10 Ki": 1.02}
{"Mol Smiles": "O=S1(=O)C=Cc2cc(-n3nncc3-c3ccc(Cl)cc3)ccc2O1", "log10 Ki": 0.96}
